// data source = ChEMBL document CHEMBL5370654

test: Cmax in C57BL6 mouse at 30 mg/kg, po measured upto 24 hrs by LC-MS/MS analysis; format: ADME, organism-based; parameters: dose 30 mg/kg, time < 24 hrs, route po; settings: in vivo
recordedMetric: Cmax
The number alone won't do; follow it with the unit.

Documented Cmax of "C[C@@H](CC(=O)O)c1ccc(OCc2cc(F)c3c(-c4cc(Cl)c(CO)c(Cl)c4)nn(C4CCCC4)c3c2)cc1" : 7900 ng/mL

----------
target: Chemerin-like receptor 1 (Homo sapiens); assay: Antagonist activity at human CMKLR1 expressed in CHO-K1 cells co-expressing Galpha-16 assessed as change in intracellular calcium concentration incubated for 30 mins in presence of chemerin-9 by FLIPR calcium 5 assay; format: functional, cell-based
Sequence (Q99788 whole entry): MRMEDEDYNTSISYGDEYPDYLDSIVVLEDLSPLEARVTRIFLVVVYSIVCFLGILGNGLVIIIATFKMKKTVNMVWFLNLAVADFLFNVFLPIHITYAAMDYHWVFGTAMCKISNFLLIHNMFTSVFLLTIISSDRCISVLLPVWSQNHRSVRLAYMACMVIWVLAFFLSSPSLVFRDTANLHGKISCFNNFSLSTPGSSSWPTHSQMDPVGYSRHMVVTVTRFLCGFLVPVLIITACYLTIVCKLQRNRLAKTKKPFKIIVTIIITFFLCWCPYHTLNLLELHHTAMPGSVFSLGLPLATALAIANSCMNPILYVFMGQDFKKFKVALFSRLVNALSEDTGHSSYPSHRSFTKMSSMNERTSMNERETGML
Attribute: IC50
The answer consists of two parts: a number and, after it, its unit.

{"compound": "C[C@@H](CC(=O)O)c1ccc(OCc2ccc3c(-c4ccc(O)c([N+](=O)[O-])c4)nn(C4CCCC4)c3c2)cc1", "recordedMetric": "IC50", "reportedResult": "1700 nM"}
{"compound": "C[C@@H](CC(=O)O)c1ccc(OCc2ccc3c(-c4ccc(O)c(O)c4)nn(C4CCCC4)c3c2)cc1", "recordedMetric": "IC50", "reportedResult": "2090 nM"}

Reported IC50 for COc1ccc(-c2nn(C3CCCC3)c3cc(COc4ccc(C(C)CC(=O)O)cc4)ccc23)cc1 (racemic) was 1100 nM

Looking up CC(CC(=O)O)c1ccc(OCc2ccc3c(-c4cccc(O)c4)nn(C4CCCC4)c3c2)cc1 (racemic) , I see its IC50 listed as 2570 nM
